The following are reported pIC50 results, target or system 5-HT2 receptors (Rattus norvegicus).
Value format note: pIC50 is -log10 of concentration (mol/L); just state the number.

Field: example entries. Status: answers known.
Molecule | Test result
Fc1ccc([C@H]2C[C@H](N3CCNCC3)c3ccc(Cl)cc32)cc1 (single isomer, unassigned) [(-)-10] | 7.82
O=C1NCCN1CCN1CCN([C@@H]2C[C@@H](c3ccc(F)cc3)c3cc(Cl)ccc32)CC1 (relative stereo) | 8.54

Which pIC50 value belongs to CC1(C)CNC(=O)N(CCN2CCN([C@@H]3C[C@@H](c4ccc(F)cc4)c4cc(Cl)ccc43)CC2)C1 (single isomer, unassigned) ?
8.32

Queued: Fc1ccc([C@@H]2C[C@@H](N3CCN(CCN4CCCNC4=S)CC3)c3ccc(Cl)cc32)cc1 (relative stereo) [Compound 32]
8.82

Queued: Cc1cc([C@@H]2C[C@@H](N3CCN(CCN4CCNC4=O)CC3)c3ccc(Cl)cc32)cs1 (relative stereo)
8.10

Queued: O=C1NCCN1CCN1CCN([C@@H]2C[C@@H](c3ccc(F)cc3)c3ccccc32)CC1 [Irindalon, reference compound]
8.47
